tested on: MCF-7; test: SRB cytotoxicity, MCF-7; format: cell-based, human; details: Table 1C; SRB, 72 h; read-out: IC50
Values of IC50 strictly less than 0.7 nM map to Met, and values of at least 0.7 nM map to Not met.

Some solved entries appear below for comparison.
[[record]]
sample_smiles = "C/C(=C\\c1csc(C)n1)[C@@H]1C[C@@H]2O[C@]2(C)CCC[C@H](C)[C@H](O)[C@@H](C)C(=O)C(C)(C)[C@@H](O)CC(=O)O1"
answer_label = "Met"

[[record]]
sample_smiles = "C/C(=C\\c1csc(C)n1)[C@@H]1C[C@@H]2O[C@@H]2CCC[C@H](C)[C@H](O)[C@@H](C)C(=O)C(C)(C)[C@@H](O)CC(=O)O1"
answer_label = "Not met"

[[record]]
sample_smiles = "C/C(=C\\c1csc(C)n1)[C@@H]1C/C=C\\CCC[C@H](C)[C@H](O)[C@@H](C)C(=O)C(C)(C)[C@@H](O)CC(=O)O1"
answer_label = "Not met"


Switching to the query record.
Request: Consider the compound C/C1=C/C[C@@H](/C(C)=C/c2csc(C)n2)OC(=O)C[C@H](O)C(C)(C)C(=O)[C@H](C)[C@@H](O)[C@@H](C)CCC1 . Is its IC50 strictly less than 0.7 nM?
Result: Not met

* * *

# reported log10(IC50); entries follow
system: CCRF-CEM/VBL100; experiment: cells; format: cell-based, human; conditions: Table 5; CCRF-CEM/VLB; single determinations; read-out: IC50
Record value = log10 of IC50 given in nM.

[[record]]
molecule = "C/C(=C\\c1csc(C)n1)[C@@H]1C[C@@H]2O[C@]2(C)CCC[C@H](C)[C@H](O)[C@@H](C)C(=O)C(C)(C)[C@@H](O)CC(=O)O1"
measurement = 0.23

[[record]]
molecule = "CCC1=CCC(C(C)=Cc2csc(C)n2)OC(=O)CC(O)C(C)(C)C(=O)C(C)C(O)C(C)CCC1 (stereo not drawn)"
measurement = 2.29

[[record]]
molecule = "C/C(=C\\c1csc(C)n1)[C@@H]1C[C@@H]2O[C@@H]2CCC[C@H](C)[C@H](O)[C@@H](C)C(=O)C(C)(C)[C@@H](O)CC(=O)O1 [EPOTHILONE A SYNTHETIC, epothilone A]"
measurement = 1.18

[[record]]
molecule = "CCC/C1=C\\C[C@@H](/C(C)=C/c2csc(C)n2)OC(=O)C[C@H](O)C(C)(C)C(=O)[C@H](C)[C@@H](O)[C@@H](C)CCC1"
measurement = 2.40

[[record]]
molecule = "C/C1=C/C[C@@H](/C(C)=C/c2ccccc2)OC(=O)C[C@H](O)C(C)(C)C(=O)[C@H](C)[C@@H](O)[C@@H](C)CCC1"
measurement = 2.16


Please look at the following molecule next.
Summary for this molecule, CC[C@@]12CCC[C@H](C)[C@H](O)[C@@H](C)C(=O)C(C)(C)[C@@H](O)CC(=O)O[C@H](/C(C)=C/c3csc(C)n3)C[C@@H]1O2 : log10(IC50) is 0.86

* * *

tested on: CCRF-CEM/VBL100; assay: cells; assay type: cell-based, human; conditions: Table 7; CEM/VBL; listed as 4; read-out: IC50
readout: IC50 (µM)
Please state the figure in µM; there is no need to write the unit.

Summary for this compound, CC(=Cc1csc(C)n1)C1CC=CCCCC(C)C(O)C(C)C(=O)C(C)(C)C(O)CC(=O)O1 (stereo not shown) : IC50 is 43.8
